Values were extracted from patent US11884631B1.

Exercise: state measured melting point for each of the molecules provided.

Example results:
# mol, assay.endpoint, result
records = [
    ("Cc1ccc2c(ccc[n+]2CC(=O)c2ccc(Br)cc2)c1.[Br-]", "melting point", "221 to 222 °C"),
    ("Cc1ccc2c(ccc[n+]2CC(=O)c2ccc(F)cc2)c1.[Br-]", "melting point", "206 to 207 °C"),
]

Report melting point for every entry below.
1. Cc1ccc2c(ccc[n+]2CC(=O)c2cc(C(F)(F)F)cc(C(F)(F)F)c2)c1.[Br-]
2. Cc1ccc2c(ccc[n+]2CC(=O)c2ccccc2[N+](=O)[O-])c1.[Br-]

Reply:
1: 246 to 247 °C; 2: 218 to 219 °C
